# Tested on: MS2 coat protein
# assay_procedure: apparent KD of MS2 coat protein; designed switch direction (-1 OFF switch, 1 ON switch): -1; higher = weaker reporter binding
# measurement_context: input ligand: none
The threshold is inclusive: apparent KD of MS2 coat protein of exactly 30 nM counts as condition met; values below receive condition not met.

Example cases with answers are listed next.
CUGCUCCGUGUAGGAUAUCGCCGCACCACCCGGCGAGAAGGACAUGAGGAUCACCCAUGUAUGUUAUUAUCACGUGUGGCGCGC [Design 40] (Eterna round: R96, puzzle: Exclusion NG 1) : condition not met
GGCAAAUUUGUAAGGAUAUUGAGCAGCGAAGAGCUCGAGAAGGUACAUGAGGAUCACCCAUGUUUCUCAGACGC [Eternabot (Original) Solution 49] (Eterna round: R97, puzzle: Brourd's mod of Exclusion 4) : condition not met
GUAUAUGAUGUAGGAUAUACGAGACAUGAGGAUCACCCAUGUGAGGGAAGGAGAAGGAGAAGAGAGUAGAAGGAUAGAGUGUGA [Default title] (Eterna round: R96, puzzle: Exclusion NG 2) : condition met
UCGCUCCGUGUAGGAUAUCGCCGUUCUAUUCGGCGAGAAGGACAUGAGGAUCACCCAUGUAUGUUAUUAUCACGCGUGGCGCAC [Design 57] (Eterna round: R96, puzzle: Exclusion NG 1) : condition not met
ACAUGAGGAUCACCCAUGUCCGGCUGGUCCGUCUCGGCUGUCGAGGAUAUAGCUCGGUAUCCGCGCUAGAAGGCGGGAGCCGGA [Aenatbe mod 84] (Eterna round: R96, puzzle: Exclusion NG 3) : condition met
AUAAAACAUGAGGAUCACCCAUGUCAGGAUAUACGACUCCAACCUAACAGCUUGGACCGUAGAAGGGACAAGGG [Exclusion 1 (MOD2.2 Esqu)] (Eterna round: R97, puzzle: Exclusion 1) : condition met
GGCAUGCAAGGAUAUACUUGCAGUGAUAUUCGAUAAAGUCUACUUGAGGAUCACCCAAGUAGAAGGUGCAUGCC [Exclusion 2 (Mod6 JL EX2 4.74 Vienna UCT mod of Mamaed)] (Eterna round: R97, puzzle: Exclusion 2) : condition not met
UUUUUUGUAGUGAGGAUAUCGUUGAGGAUGUGGAUCGAGAAGGCACAUGAGGAUCACCCAUGUUAGAUGUGGUU [JR_BMOE4_Sub083] (Eterna round: R96, puzzle: Brourd's mod of Exclusion 4) : condition met

Attention now turns to another entry.
Hi team, for GCACUGCGAGGAUAUACAUGAGGAUCACCCAUGUGUCGGCAGACUUGUUUGGUCUAAGGUAGAAGGCGCGUAAA [JR_Ex3_Sub003] (Eterna round: R97, puzzle: Exclusion 3) , is the recorded apparent KD of MS2 coat protein at or above 30 nM? condition met
